Where do these numbers come from? They come from the supplement of paper PMC6555819.

sequences and their reported PBM binding z-score
- Tested on: RXRa DBDmut IVT, anti-RXR (DBD mutation: RXRa K156A/R161A, NR concentration 90 nM)
- assayInfo: PBM binding z-score (relative to random genomic background probes); higher = stronger binding; sequences stand for … in GC…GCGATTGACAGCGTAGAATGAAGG
propertyMeasured: PBM binding z-score

[[record]]
seqtext = "CAAACTTGGTCACGAAAGGTCAAAGTCGAATGAC"
valuemeasured = 1.4

[[record]]
seqtext = "TCTGCTAGGTCATTTGGTCAGCTAACGAGCTGCC"
valuemeasured = 2.58

[[record]]
seqtext = "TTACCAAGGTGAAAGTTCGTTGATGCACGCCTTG"
valuemeasured = 1.14

[[record]]
seqtext = "CTCGAAAGGTCGTGCTCAGGTGTGTATACCAAAC"
valuemeasured = 2.5

[[record]]
seqtext = "GGAACGCGGGCATTCGAGTTGATAGCATGGCGAT"
valuemeasured = 0.211

[[record]]
seqtext = "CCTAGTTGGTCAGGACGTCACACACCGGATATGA"
valuemeasured = 0.386

[[record]]
seqtext = "TAGCCTAGGTCAGATCCGGCCAGTATACGCTATA"
valuemeasured = -0.288

[[record]]
seqtext = "TATATTAGTTGATTAGGGCAACCGAAACAGCGGA"
valuemeasured = 0.252

[[record]]
seqtext = "CCGAGCAGGCCAGGGTCACTCAAGCATTTCGCTT"
valuemeasured = 0.694

[[record]]
seqtext = "GGAACGAGGGCATTCGAGTAGATAGCATGGCGAT"
valuemeasured = 3.24

[[record]]
seqtext = "CCTAGGAGGACAGAAGGTCAGAGCTGTCCGCTTT"
valuemeasured = 0.179

[[record]]
seqtext = "CCAGGCAGGTGAAAGGTAACTCAGTCTGGTACGC"
valuemeasured = -0.641

[[record]]
seqtext = "TCATATAGGTTAACAGGTGAAAGTCCGTAAGTTA"
valuemeasured = 1.53

[[record]]
seqtext = "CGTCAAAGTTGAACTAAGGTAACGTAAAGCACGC"
valuemeasured = 0.678

[[record]]
seqtext = "TCATATAGGTAAAGAGGTGAAAGTCCGTAAGTTA"
valuemeasured = 1.73

[[record]]
seqtext = "TCAGACCGGTGAAGGTAACTCAGGTACGCAGTCG"
valuemeasured = 0.832

[[record]]
seqtext = "AGAATGAGGTTAAGATCAGGAAAACAGAATACAT"
valuemeasured = 0.917

[[record]]
seqtext = "CCTGATAGGTCATGGTCAGCTAATCTACAGTATG"
valuemeasured = 1.57

[[record]]
seqtext = "GCTGCTAGGTCAACTGATGGTCAGATAAAGCTCG"
valuemeasured = 1.79

[[record]]
seqtext = "CCTTACGGGCCACTGACAGGTTATAGCATTTGGA"
valuemeasured = -0.085

[[record]]
seqtext = "CAAACTAGGTCACAGAGCTCAAAGTCCGTGCGTA"
valuemeasured = 1.38

[[record]]
seqtext = "TCATATAGGTGATACAGGTGAAAGTCGGCATCTA"
valuemeasured = 1.16

[[record]]
seqtext = "CGAACTAGCTCATTGACAGGACAGTGAATAGTAA"
valuemeasured = 0.00616

[[record]]
seqtext = "CAAACTAGGACAAGAGGTCAAAGTCCGCTTCCCG"
valuemeasured = 2.33

[[record]]
seqtext = "ACTATTAGTTGAGACGAGAGCAACCGATAGGTTG"
valuemeasured = -0.00279

[[record]]
seqtext = "CAAACTCGGTCAAGAGGTCAAAGTCCGCTTCCCG"
valuemeasured = 2.01

[[record]]
seqtext = "CGAACTAGGTCATTGACAGTACAGTGAATAGTAA"
valuemeasured = 2.62

[[record]]
seqtext = "TCATATAGGTAAATGGTGAAAGTCGGTGTGGTAA"
valuemeasured = 1.83

[[record]]
seqtext = "TCATAGAGGTAATACAGGTGAAAGTCGGCATCTA"
valuemeasured = 1.01

[[record]]
seqtext = "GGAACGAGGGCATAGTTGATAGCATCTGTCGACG"
valuemeasured = 2.25

[[record]]
seqtext = "CCGACTGGGGCAGAAAGGTTCCCATACCATCCGG"
valuemeasured = -1.16

[[record]]
seqtext = "CCTACTGGGCCATTCAGAGGTCATTGAACATATG"
valuemeasured = 1.03

[[record]]
seqtext = "ACAGACAGGTGAGTGAAGGTAACTGAGCTGGACG"
valuemeasured = -0.622

[[record]]
seqtext = "ATCTCTAGGTAACCAGTTCAGTGAAAGAGAGGAC"
valuemeasured = 0.358

[[record]]
seqtext = "TCTATTAGTTGATGAGGGCAACCGAAACAGCGGA"
valuemeasured = 1.31

[[record]]
seqtext = "CGTCCAAGGTCAGCAGGTCAGTGCAAGCGACGTG"
valuemeasured = 2.29

[[record]]
seqtext = "GCTCTTAGTTGAAAGGGCAACCGAATGATTCTCG"
valuemeasured = 0.899

[[record]]
seqtext = "GCTAGCTGGTCAGTAAAAGGTCACACACCGGTCG"
valuemeasured = 0.376

[[record]]
seqtext = "CCTACTGGGCCATCAGGTCCTTGATATCAACGTT"
valuemeasured = -0.586

[[record]]
seqtext = "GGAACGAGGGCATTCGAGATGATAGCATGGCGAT"
valuemeasured = 3.05

[[record]]
seqtext = "TCTATTAGTTGAATAGGGCAACCGAAACAGCGGA"
valuemeasured = 0.685

[[record]]
seqtext = "GCTATTAGTTGAAAAGGCAACCGAATGATTCTCG"
valuemeasured = 0.693

[[record]]
seqtext = "CTAACAAGGTGAACAAGGTCGTTGATTACTATTC"
valuemeasured = 1.6

[[record]]
seqtext = "CCAGACAGGTGAGAAGGTTACTCAGCCTCGATTA"
valuemeasured = 0.518

[[record]]
seqtext = "CCAGACAGGTGAAAGGTAACTTAGTCTGGTACGC"
valuemeasured = 0.208

[[record]]
seqtext = "ATCGTAAGGTCGACGAGGTGAGTATACACCGTTT"
valuemeasured = 1.37

[[record]]
seqtext = "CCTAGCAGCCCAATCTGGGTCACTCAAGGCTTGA"
valuemeasured = -0.241

[[record]]
seqtext = "TCTACCAGGCCAGAGGGTCACTCAAGAGGTACGG"
valuemeasured = 0.518

[[record]]
seqtext = "TCGAGTAGATTAGGGGCATTCAGAATGGCGTCGA"
valuemeasured = 0.574

[[record]]
seqtext = "ACTATTAGTTGACTTAGGGCAAACGATACGACGC"
valuemeasured = 0.703

[[record]]
seqtext = "CAAACTAGGACACAGAGGTCAAAGTCCGTGCGTA"
valuemeasured = 2.31


====

sequences and their reported PBM binding z-score
- Test system: PPARg DBDmut:RXRa IVT, anti-PPARg (DBD mutation: PPARg1 K132A/R137A, NR concentration 270 nM, RXRa partner concentration 90 nM)
- assayInfo: PBM binding z-score (relative to random genomic background probes); higher = stronger binding; sequences stand for … in GC…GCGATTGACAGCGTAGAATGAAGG
propertyMeasured: PBM binding z-score

[[record]]
seqtext = "CATACAGGATCAGCTAGGCCAGAGTAGGGACGGC"
valuemeasured = 0.289

[[record]]
seqtext = "CCTGGGAGGACAACAGGAGGTCAGAGCTGCCAGA"
valuemeasured = -0.434

[[record]]
seqtext = "CCGACTGGGGTATAAGGTTACCATAAGCCAGCCC"
valuemeasured = -0.919

[[record]]
seqtext = "GCAGACAGGTGAAACGCAGGTATCTCAGGGTGGC"
valuemeasured = -0.724

[[record]]
seqtext = "TCAGACAGGTGATGGTAACTCAGGTACGCAGTCG"
valuemeasured = -0.328

[[record]]
seqtext = "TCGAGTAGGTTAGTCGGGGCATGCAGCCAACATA"
valuemeasured = 0.028

[[record]]
seqtext = "AATACAGGGTCATCGTAGGCCAGATTACGCACAG"
valuemeasured = 2.1

[[record]]
seqtext = "GCGACGGGGGCATCAGCAGGTTACCATAACTTAA"
valuemeasured = 7.32

[[record]]
seqtext = "CCTTACGGGTCACTGACTGGTTATAGCATTTGGA"
valuemeasured = 0.987

[[record]]
seqtext = "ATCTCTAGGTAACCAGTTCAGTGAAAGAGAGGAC"
valuemeasured = 0.836

[[record]]
seqtext = "ATCTCTAGGTAACCAACTTCAGTGAATGCCGAAC"
valuemeasured = 1.39

[[record]]
seqtext = "TCTGCTAGGTCAGTTGGCCAGCTAACGAGCTGCC"
valuemeasured = 0.783

[[record]]
seqtext = "TTTATTAGTTGAAGGGCAACCGACGAGTCCGTTT"
valuemeasured = 0.878

[[record]]
seqtext = "CCTTACGGGTCACGAGCTTATAGCACGACGAGCG"
valuemeasured = 2.37

[[record]]
seqtext = "CCTGCTAGGTCAATGGTCAGGTAAAGCAGCTCGC"
valuemeasured = 0.154

[[record]]
seqtext = "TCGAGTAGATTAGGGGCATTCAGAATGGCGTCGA"
valuemeasured = -1.09

[[record]]
seqtext = "TGAATGAGGTTAAAGATAAGGGAACGTGGCGTCG"
valuemeasured = 1.71

[[record]]
seqtext = "ATCTCTAGGTAACAAGATCAGTGAAAGAGAGGAC"
valuemeasured = 1.75

[[record]]
seqtext = "AATCAAAGTTCAGGACGAGGTAACGTAAAGCACG"
valuemeasured = 0.569

[[record]]
seqtext = "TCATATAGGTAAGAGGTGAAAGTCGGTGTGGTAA"
valuemeasured = 1.44

[[record]]
seqtext = "TAGCCTAGGTCAGATCGGGCCAGTATTCGCTATA"
valuemeasured = -0.683

[[record]]
seqtext = "CGTCCAAGGTGAATGCTAGGTCAGTGAAAGCATT"
valuemeasured = -0.677

[[record]]
seqtext = "GCTGCTAGGTCAACTGATGGTCAGCTATAGCTCG"
valuemeasured = -0.479

[[record]]
seqtext = "GGAACGAGGGCAAGTTGATATCAGAGTTTGATGG"
valuemeasured = 0.634

[[record]]
seqtext = "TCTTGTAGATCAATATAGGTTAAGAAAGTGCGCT"
valuemeasured = 1.55

[[record]]
seqtext = "ACTCGCAGGCCAAGTTTGGGTCACTCAAACAAAG"
valuemeasured = -0.206

